Target: T1, hANGPTL3(17-169)-mFc (human)
T1 construct: also called N-terminal coiled-coil domain of hANGPTL3 with a C-terminal mouse Fc fusion
T1 chain: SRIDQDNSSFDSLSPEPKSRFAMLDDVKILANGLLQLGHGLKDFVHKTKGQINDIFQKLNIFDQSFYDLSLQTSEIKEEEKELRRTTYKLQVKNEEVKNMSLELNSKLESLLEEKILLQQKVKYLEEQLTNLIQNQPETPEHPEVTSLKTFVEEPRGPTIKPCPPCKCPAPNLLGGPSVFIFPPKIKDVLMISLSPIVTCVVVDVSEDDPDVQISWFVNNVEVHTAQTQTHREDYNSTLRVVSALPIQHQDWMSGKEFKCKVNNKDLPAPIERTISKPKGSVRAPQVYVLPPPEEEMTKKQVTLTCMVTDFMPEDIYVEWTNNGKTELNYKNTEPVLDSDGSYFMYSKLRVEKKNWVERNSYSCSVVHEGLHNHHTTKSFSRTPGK
Test: SPR Biacore, antigen captured, 25C, pH 7.4, HBS-EP
Catalogue of t1/2 values
REPORTED_METRIC: t1/2 (h)

BINDER	REPORTED_METRIC	READING
H4H1248P (antibody, IgG4, V domains shown) VH: QVQLVESGGGVVQPGRSLRLSCAASGFTFSSYGMHWVRQAPGKGLEWVAVISYDGSNKYYADSVKGRFTISRDNSKNTLYLQMNSLRAEDTAVYYCAKVGATTFYYYYGMDVWGQGTTVTVSS VL: DIQMTQSPSSVSAFVGDRVTITCRASQGISSWLAWYQQKPGKAPKLLIYAASSLQSGVPSRFSGSGSGTDFTLTISSLQPEDFATYYCQKANSFPFTFGPGTKVEIK	t1/2	0.0667
H4H1282P (antibody, IgG4, V domains shown) VH: EVQLVQSGGGVVQPGRSLRLSCAASGFTFSNYGMHWVRQAPGKGLEWVAVVWYDGDNKYYADSVKGRFTISRDNSKNTLYLQMNSLRAEDTAVYYCARDIITSRPTLDYWGQGTLVTVSS VL: DIQLTQSPSFLSASVGDRVTITCWASQGINSYLAWYQQKPGKAPKLLIYPASTLQSGVPSRFSGSGSGTEFTLTISSLQPVDFATYYCQQLNSYPLTFGGGTKVEIKR	t1/2	3.25
